Source listed as PubChem BioAssay (NCI).

# Tested on: SK-MEL-5 melanoma
# PROTOCOL_NOTES: NCI tumour cell line growth inhibition, 48 h; in the data active = GI50 below about 0.43 µM; inactive = the rest
Log the outcome using a class from T (active), F (inactive)

Examples with answers:
Cc1cn(-c2cc(NC(=O)c3cccc(C#Cc4cccc5[nH]nc(N)c45)c3)cc(C(F)(F)F)c2)cn1: F
COC(=O)c1ccc2[nH]c(O)c(C(=Nc3ccc(N(C)C(=O)CN4CCN(C)CC4)cc3)c3ccc4c(c3)OCO4)c2c1: F
COc1ccc2c(c1)OC1=C(C(=O)OC1)C2c1cc(OC)c2c(c1)OCCO2 (stereo unspecified): T

Prompt: Hi, sorry to bother you, what did the test record for Cc1ccc(C2=C(c3ccc(C)cc3)C3(c4ccc(C)cc4)C4C(=O)OC(=O)C4C2(c2ccc(C)cc2)S3=O)cc1 (stereo unspecified) ?
Response: F

Prompt: And then [N-]=[N+]=NCCCn1c2c(c3ccc([N+](=O)[O-])cc3c1=O)C(=O)c1ccccc1-2 , what is it?
Response: F

Prompt: And then CCC[CH2][Sn]([CH2]CCC)([O]C(=O)CN)[O]C(=O)CN , what is it?
Response: F

###

# System: HOP-62 NSCLC
# PROTOCOL_NOTES: NCI tumour cell line growth inhibition, 48 h; in the data active = GI50 below about 0.43 µM; inactive = the rest
Log the outcome using a class from 1 (yes) = active, 0 (no) = inactive

Examples with answers:
CCC[CH2][Sn]([CH2]CCC)([O]C(=O)CN)[O]C(=O)CN: 0 (no)
Nc1n[nH]c2cccc(C#Cc3cccc(NC(=O)c4cccc(C(F)(F)F)c4)c3)c12: 0 (no)
COc1cccc2c1C(=N)c1c(O)c3c(c(O)c1C2=O)C[C@@](O)(C(C)=O)C[C@@H]3O[C@H]1C[C@H](N)[C@H](O)[C@H](C)O1: 1 (yes)
CC1(C)N=C(N)N=C(N)N1c1ccc(CCC(=O)Nc2ccc(S(=O)(=O)F)cc2)c(Cl)c1: 0 (no)
O=C(O)c1ccc(CN2CCC(CN[C@@H]3C[C@H]3c3ccccc3)CC2)cc1: 0 (no)
O=C(Oc1ccc[nH]c1=O)c1cc([N+](=O)[O-])cc([N+](=O)[O-])c1: 0 (no)

Prompt: Hi, sorry to bother you, what did the test record for [N-]=[N+]=NCCCn1c2c(c3ccc([N+](=O)[O-])cc3c1=O)C(=O)c1ccccc1-2 ?
Response: 0 (no)

Prompt: And then CS(=O)(=O)CCNCc1coc(-c2ccc3ncnc(Nc4ccc(OCc5ccccc5)cc4)c3c2)c1 , what is it?
Response: 0 (no)

Prompt: And then Nc1ncc(-c2cnn(C3CCNCC3)c2)cc1-c1nc2cc(Cl)ccc2o1 , what is it?
Response: 0 (no)

###

Listed here are compounds together with their documented TGI.
# Tested on: NCI-H460 lung
# PROTOCOL_NOTES: NCI tumour cell line growth inhibition, 48 h

Here's what some known entries look like.
C[C@]12CC=CC(=O)[C@@]1(C)CCC(=O)C2: > 100 µM
N[C@@H]1CCN(c2c(F)cc3c(=O)c(C(=O)O)cn4c3c2Oc2c-4ccc3c2ccc2ccccc23)C1: 2.91 µM
CCC1=CCN(c2cc(C)ccn2)OC1c1ccc(OC)cc1 (centres undefined): > 100 µM
COc1ccc2c(c1)OC1=C(C(=O)OC1)C2c1cc(OC)c2c(c1)OCCO2 (centres undefined): > 100 µM
C=C(CCOC)CCC1CCCCC(CN(C)C)C1=O (centres undefined): > 100 µM
C=CC[C@]1(/C=N/O)CN(S(=O)(=O)CC[Si](C)(C)C)C[C@H]2CC=CC[C@H]21: 38.5 µM

Prompt: Query the reported TGI for NCI-H460 lung; item: CCCCCCCC(CC(=O)NC(CO)C(=O)NC(CO)CC(C)C)OC(=O)CC(CCCCCCC)OC(=O)CC(CCCCCCC)OC1OC(C)C(O)C(OC2OC(C)C(OC(C)=O)C(O)C2O)C1O (centres undefined)
Response: 15.6 µM

Prompt: And then O=C(/C=C/c1ccc(O)c(O)c1)OCC(OC(=O)/C=C/c1ccc(O)c(O)c1)C(=O)O (centres undefined) , what is it?
Response: > 100 µM

Prompt: And then O=c1[nH]c2cc(C(F)(F)F)ccc2nc1C(F)(F)F , what is it?
Response: > 100 µM

###

Listed here are compounds together with their documented GI50.
# System: UACC-62 melanoma
# PROTOCOL_NOTES: NCI tumour cell line growth inhibition, 48 h

Here's what some known entries look like.
COc1ccc2c(c1)C(=O)/C(=C/c1cccc(OCC(=O)c3ccccc3)c1)O2: 13400 nM
Cc1cn(-c2cc(NC(=O)c3cccc(C#Cc4cccc5[nH]nc(N)c45)c3)cc(C(F)(F)F)c2)cn1: 2540 nM
CN(c1ccc(NC(=O)Nc2c(Cl)cccc2Cl)cc1)c1ccnc(Nc2cccc(CS(C)(=O)=O)c2)n1: 3110 nM
CCN(CC)CCNC(Cc1ccccc1)c1ccc(OCc2ccccc2)cc1 (stereo not given): 1920 nM
CC(=O)OC1OC([C@H]2c3cccc(O)c3C(=O)c3c(O)cc(C)cc32)C(O)C(O)C1O (stereo not given in full): < 21.9 nM

Prompt: Query the reported GI50 for UACC-62 melanoma; item: CCOC(=O)[CH-]C(=O)C12CC3CC(CC(C3)C1)C2.CCOC(=O)[CH-]C(=O)C12CC3CC(CC(C3)C1)C2.CC[O-].CC[O-].[Ti+4]
Response: > 100000 nM

Prompt: And then O=C(O)c1ccc(CN2CCC(CN[C@@H]3C[C@H]3c3ccccc3)CC2)cc1 , what is it?
Response: > 100000 nM

###

Listed here are compounds together with their documented TGI.
# System: SK-MEL-28 melanoma
# PROTOCOL_NOTES: NCI tumour cell line growth inhibition, 48 h

Here's what some known entries look like.
COc1cc(NS(=O)(=O)c2ccc(C)cc2)c2nccnc2c1: > 100 µM
CCOC(=O)c1ccc(N=C/C=C(\Nc2ccc(C(=O)OCC)cc2)C23CC4CC(CC(C4)C2)C3)cc1: > 100 µM
CCN1C(=O)c2ccc3c4c(ccc(c24)C1=O)C(=O)N(CCCNCc1ccccc1OC)C3=O: 3.24 µM
CCCOC(=O)N[C@H]1CCc2c(Cl)c(OC)c(OC)c(OC)c2-c2ccc(SC)c(=O)cc21: 23.5 µM
COc1ccc(C(C#N)NC23CC4CC(CC(C4)C2)C3)cc1 (stereo unspecified): > 100 µM

Prompt: So what's the measured TGI for this one? O=C1CS(=O)(=O)C(c2cccc(Oc3ccccc3)c2)N1c1ccc(Cl)cc1 (stereo unspecified)
Response: > 100 µM

Prompt: And then O=c1oc(-c2ccccc2)cn1-c1ccccc1 , what is it?
Response: > 100 µM

Prompt: And then Cc1ccc(C(=O)O)c(/C=C2\Cc3ccc(C)cc3C2=O)c1 , what is it?
Response: > 100 µM

Prompt: And then CN(C)C/C=C/C(=O)Nc1ccc(C(=O)N[C@@]2(C)CCC[C@@H](Nc3ncc(Cl)c(-c4c[nH]c5ccccc45)n3)C2)nc1 , what is it?
Response: 0.118 µM

Prompt: And then Cc1cn(C2CC(OC(=O)c3ccc(Cl)cc3)C(COC(=O)c3ccc(Cl)cc3)O2)c(=O)[nH]c1=O (stereo unspecified) , what is it?
Response: > 100 µM

Prompt: And then CC(C)CCNC(=O)c1ccc(CNC(=O)/C=C/c2cccc(Oc3ccccc3)c2)cc1 , what is it?
Response: > 100 µM

Prompt: And then NCCCNCCS , what is it?
Response: > 100 µM

Prompt: And then CSc1c(C(=O)Nc2ccccc2)c(N)n(N)c(=O)c1C#N , what is it?
Response: > 100 µM

###

Listed here are molecules together with their documented TGI.
# Test system: SNB-75 CNS
# PROTOCOL_NOTES: NCI tumour cell line growth inhibition, 48 h

Here's what some known entries look like.
Cc1cc(N(CC(C)Br)CC(C)Br)ccc1N=Nc1ccccc1C(=O)O (stereo not drawn): 11.2 µM
Cc1ccc(S(=O)(=O)Nc2cccc3c(=O)[nH]cnc23)cc1: > 100 µM
Cc1cc(C)nc(NS(=O)(=O)c2ccc(Nc3c4ccccc4nc4ccc(C(=O)Nc5ccc(S(N)(=O)=O)cc5)cc34)cc2)n1: > 100 µM

Prompt: So what's the measured TGI for this one? CCOC(=O)c1ccc(N=C/C=C(\Nc2ccc(C(=O)OCC)cc2)C23CC4CC(CC(C4)C2)C3)cc1
Response: > 100 µM

Prompt: And then CS(=O)(=O)CCNCc1coc(-c2ccc3ncnc(Nc4ccc(OCc5ccccc5)cc4)c3c2)c1 , what is it?
Response: 10 µM

Prompt: And then O=C1C(=O)c2ccccc2C(O)=C1C(C1=C(O)c2ccccc2C(=O)C1=O)c1ccc(Cl)cc1 , what is it?
Response: 9.83 µM

Prompt: And then CC/C=C\C[C@H]1CC=C2C(=O)C=C[C@@H]2CC=CCCCC(=O)O[C@@H](CCCCC)CC=C2C(=O)C=C[C@@H]2CC=CCCCC(=O)O[C@@H](CCCCC)CC=C2C(=O)C=C[C@@H]2CC=CCCCC(=O)O[C@@H](CCCCC)CC=C2C(=O)C=C[C@@H]2CC=CCCCC(=O)O1 , what is it?
Response: > 7.9 µM

Prompt: And then C=CC[P@]1(=O)O[C@H](c2ccccc2)[C@H](C)N1C , what is it?
Response: > 100 µM
